Source: ChEMBL document CHEMBL3286298

# reported Ratio; entries follow
# Test system: Brain
# protocol: Drug uptake in Kunming mouse brain […] iv ibuprofen administered as single dose by HPLC analysis relative to ibuprofen
# Assay type: ADME, organism-based
# condition-notes: in vivo

compound	assayed-target	Ratio
CC(C)Cc1ccc(C(C)C(=O)OC(CO)C2OC(=O)C(O)=C2O)cc1 (centres undefined)	Brain	2.254
C/C(=C(\CCOC(=O)C(C)c1ccc(CC(C)C)cc1)SSCc1ccccc1)N(C=O)CC(=O)OCC(OC(=O)C(C)c1ccc(CC(C)C)cc1)C1OC(=O)C(O)=C1O (centres undefined)	Brain	4.072
CC(C)Cc1ccc(C(C)C(=O)OCC(OC(=O)C(C)c2ccc(CC(C)C)cc2)C2OC(=O)C(O)=C2O)cc1 (centres undefined)	Brain	3.516
CC(C)Cc1ccc(C(C)C(=O)OCC(O)C2OC(=O)C(O)=C2O)cc1 (centres undefined)	Brain	2.03

====

# System: Brain
# protocol: Metabolic stability in mouse brain assessed as first order rate constant of disappearance of drug by HPLC analysis
# Assay type: ADME, tissue-based
measured-attribute: K

molecule	result
CC(C)Cc1ccc(C(C)C(=O)OCC(OC(=O)C(C)c2ccc(CC(C)C)cc2)C2OC(=O)C(O)=C2O)cc1 (centres undefined)	2.48 ×10⁻² /min
CC(C)Cc1ccc(C(C)C(=O)OC(CO)C2OC(=O)C(O)=C2O)cc1 (centres undefined)	4.16 ×10⁻² /min
CC(C)Cc1ccc(C(C)C(=O)OCC(O)C2OC(=O)C(O)=C2O)cc1 (centres undefined)	3.46 ×10⁻² /min
C/C(=C(\CCOC(=O)C(C)c1ccc(CC(C)C)cc1)SSCc1ccccc1)N(C=O)CC(=O)OCC(OC(=O)C(C)c1ccc(CC(C)C)cc1)C1OC(=O)C(O)=C1O (centres undefined)	5.46 ×10⁻² /min

====

# protocol: Chemical stability of compound in phosphate buffer assessed as half life at pH 5.86 by HPLC analysis
# Type: physicochemical

compound	half-life
CC(C)Cc1ccc(C(C)C(=O)OCC(O)C2OC(=O)C(O)=C2O)cc1 (centres undefined)	18.4 h
CC(C)Cc1ccc(C(C)C(=O)OC(CO)C2OC(=O)C(O)=C2O)cc1 (centres undefined)	20.6 h
CC(C)Cc1ccc(C(C)C(=O)OCC(OC(=O)C(C)c2ccc(CC(C)C)cc2)C2OC(=O)C(O)=C2O)cc1 (centres undefined)	18.9 h
C/C(=C(\CCOC(=O)C(C)c1ccc(CC(C)C)cc1)SSCc1ccccc1)N(C=O)CC(=O)OCC(OC(=O)C(C)c1ccc(CC(C)C)cc1)C1OC(=O)C(O)=C1O (centres undefined)	23.9 h

====

# protocol: Tmax in Kunming mouse blood at 48 mmol/g, iv administered as single dose by HPLC analysis
# Assay type: ADME, organism-based

compound	Tmax, min
CC(C)Cc1ccc(C(C)C(=O)O)cc1 (stereo unspecified)	6.67
